Molecular target: sGC α1/β1 heterodimer (Homo sapiens, UniProt Q02108+Q02153)
Sequence (Q02108 whole entry): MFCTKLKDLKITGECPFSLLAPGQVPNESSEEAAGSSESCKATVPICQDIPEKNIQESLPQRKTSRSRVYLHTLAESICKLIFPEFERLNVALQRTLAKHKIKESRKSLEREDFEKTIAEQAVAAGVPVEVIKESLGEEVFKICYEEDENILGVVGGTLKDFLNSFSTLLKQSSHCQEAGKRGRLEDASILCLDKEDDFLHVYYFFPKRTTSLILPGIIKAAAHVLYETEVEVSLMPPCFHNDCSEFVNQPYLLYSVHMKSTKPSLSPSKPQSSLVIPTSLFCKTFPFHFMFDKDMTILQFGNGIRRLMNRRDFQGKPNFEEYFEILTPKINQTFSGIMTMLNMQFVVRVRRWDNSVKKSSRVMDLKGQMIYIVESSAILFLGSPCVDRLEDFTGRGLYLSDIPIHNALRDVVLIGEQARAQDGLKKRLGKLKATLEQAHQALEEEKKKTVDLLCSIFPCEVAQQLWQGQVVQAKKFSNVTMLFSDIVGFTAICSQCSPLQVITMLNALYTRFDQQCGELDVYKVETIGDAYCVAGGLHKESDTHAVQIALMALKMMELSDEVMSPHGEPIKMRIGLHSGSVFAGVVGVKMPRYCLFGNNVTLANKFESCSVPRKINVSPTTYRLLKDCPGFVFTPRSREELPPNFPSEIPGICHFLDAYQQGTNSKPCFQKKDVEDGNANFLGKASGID
Sequence (Q02153 whole entry): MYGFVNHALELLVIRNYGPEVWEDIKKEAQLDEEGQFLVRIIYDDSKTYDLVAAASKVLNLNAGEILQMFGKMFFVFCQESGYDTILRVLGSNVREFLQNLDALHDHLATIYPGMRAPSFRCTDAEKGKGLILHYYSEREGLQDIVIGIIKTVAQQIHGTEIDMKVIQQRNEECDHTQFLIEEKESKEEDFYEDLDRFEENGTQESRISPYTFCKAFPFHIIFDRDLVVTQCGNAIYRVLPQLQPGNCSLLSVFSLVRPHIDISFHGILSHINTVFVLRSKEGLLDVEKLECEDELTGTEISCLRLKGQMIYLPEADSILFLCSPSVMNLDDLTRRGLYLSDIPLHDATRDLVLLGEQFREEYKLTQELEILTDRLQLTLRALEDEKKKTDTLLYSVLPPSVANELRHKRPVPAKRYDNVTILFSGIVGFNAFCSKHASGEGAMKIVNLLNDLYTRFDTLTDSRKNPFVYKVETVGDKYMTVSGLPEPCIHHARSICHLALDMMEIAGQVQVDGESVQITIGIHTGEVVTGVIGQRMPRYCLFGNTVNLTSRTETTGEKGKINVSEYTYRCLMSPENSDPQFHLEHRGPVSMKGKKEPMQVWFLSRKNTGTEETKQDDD
Assay: Cell-based sGC functional assay (CASA assay): cGMP generation in CHO-K1/sGC cells, HTRF detection
Conditions: inflection point (IP) of cGMP generation in CHO-K1/sGC cells, 4P fit; activity expressed as percentage of Compound A
pEC50: −log10 of the molar value.
Readout name: pEC50

Example entries and their recorded answers appear below.
CC1(c2ccc(F)cc2)C(=O)Nc2nc(-c3cn4ccnc4c(Cc4ccc(F)cc4)n3)nc(N)c21 (stereo not shown) [Example 92A] | 8.05
CCCCc1nc(-c2nc(N)c3c(n2)NC(=O)C3(c2cccc(C(F)(F)F)n2)C2CC2)cn2ccnc12 (single isomer, unassigned) [Example 355A] | 6.69

I: Cc1ccc(C2(C)C(=O)Nc3nc(-c4cn5ccnc5c(CCC(F)(F)C(F)(F)F)n4)nc(N)c32)cc1 (stereo not shown) [Example 230B]
II: CC1(c2ccc(Cl)cc2F)C(=O)Nc2nc(-c3cn4ccnc4cn3)nc(N)c21 (stereo not shown) [Example 136A]
Larger number for pEC50: I , or II ? // caller expects the label of the chosen entry
I

----------
Target: sGC α1/β1 heterodimer (Homo sapiens, UniProt Q02108+Q02153)
Construct: expressed in transfected cells; host or cells: CHO-K1 (clone #7, CHO-K1/sGC)
Test: Cell-based sGC functional assay (CASA assay): cGMP generation in CHO-K1/sGC cells, HTRF detection
Conditions: percent activation relative to standard Compound A in CHO-K1/sGC cells
Readout name: % Act. (%)

Some compounds with recorded % Act.:
CC1(C(=O)NC2CC2)C(=O)Nc2nc(-c3cn4ccnc4c(Cc4cccc(F)c4)n3)nc(N)c21 (single isomer, unassigned) [Example 36B] | 154
Nc1nc(-c2cn3ccnc3c(CCC(F)(F)C(F)(F)F)n2)nc2c1C(C(=O)NC1CC1)(C1CC1)C(=O)N2 (single isomer, unassigned) [Example 61B] | 83
CCC1(C2CC2)C(=O)Nc2nc(-c3cn4ccnc4c(Cc4ccccc4)n3)nc(N)c21 (single isomer, unassigned) [Example 77A] | 151
CC1(c2ccc(F)cc2)C(=O)Nc2nc(-c3cn4ccnc4c(CCC(F)(F)C(F)(F)F)n3)nc(N)c21 (single isomer, unassigned) [Example 68A] | 112
Nc1nc(-c2cn3ccnc3c(Cc3cccc(F)c3)n2)nc2c1C(C(=O)NC1CC1)(C1CC1)C(=O)N2 (single isomer, unassigned) [Example 38B] | 103

a: Nc1nc(-c2cn3ccnc3c(Cc3ccc(F)cc3)n2)nc2c1C(c1ccc(Cl)cn1)(C1CC1)C(=O)N2 (single isomer, unassigned) [Example 108A]
b: Nc1nc(-c2cn3ccnc3c(Cc3ccc(F)cc3)n2)nc2c1C(c1ccc(Cl)cn1)(C1CC1)C(=O)N2 (single isomer, unassigned) [Example 108B]
c: CCC1(C2CC2)C(=O)Nc2nc(-c3cn4ccnc4c(Cc4ccccc4)n3)nc(N)c21 (single isomer, unassigned) [Example 77B]
Rank entries according to their % Act., from the largest number down. // list labels; follow requested order
c, a, b

----------
Target: sGC α1/β1 heterodimer (Homo sapiens, UniProt Q02108+Q02153)
Assay: Cell-based sGC functional assay (CASA assay): cGMP generation in CHO-K1/sGC cells, HTRF detection
Details: inflection point (IP) of cGMP generation in CHO-K1/sGC cells, 4P fit; activity expressed as percentage of Compound A
Experimental: Biological Assay 1: Cell-Based sGC Functional Assay (CASA Assay) sGC is a heme-containing enzyme that converts GTP to secondary messenger cGMP. […] A CHO-K1 cell line stably expressing the sGC α1/β1 heterodimer was generated using a standard transfection protocol. […] The level of intracellular cGMP was determined using an HTRF-based assay kit (CisBio, 62GM2PEC), which detects the displacement of a fluorescence labeled cGMP from its specific antibody. […]
Readout name: EC50 (nM)

Solved entries (count: 3):
CC1(c2ccc(Cl)cc2)C(=O)Nc2nc(-c3cn4ccnc4cn3)nc(N)c21 (stereo not shown) [Example 144A] | 400
CC1(C)C(=O)Nc2nc(-c3cn4ccnc4c(Cc4ccc(F)cc4)n3)nc(N)c21 [Example 72] | 342
COC(=O)c1cccc(C2(C)C(=O)Nc3nc(-c4cn5ccnc5c(CCC(F)(F)C(F)(F)F)n4)nc(N)c32)c1 (single isomer, unassigned) [Example 270B] | 319

A: CN(C)c1nc(-c2cn3ccnc3c(CCC(F)(F)C(F)(F)F)n2)nc2c1C(C)(c1ccc(F)cc1)C(=O)N2 (stereo not shown) [Example 308A]
B: CCCCc1nc(-c2nc(N)c3c(n2)NC(=O)C3(C)c2ccc(Cl)cn2)cn2c(C)cnc12 (stereo not shown) [Example 169A]
C: Cc1nnc(C2(C3CC3)C(=O)Nc3nc(-c4cn5ccnc5c(CCC(F)(F)C(F)(F)F)n4)nc(N)c32)s1 (stereo not shown) [Example 53A]
D: Nc1nc(-c2cn3ccnc3c(CCC(F)(F)F)n2)nc2c1C(c1ccc(Br)cc1)(C1CC1)C(=O)N2 (stereo not shown) [Example 200A]
Ascending by EC50, please: list the molecules accordingly. In your reply, arrange the labels in the requested order.
B, C, A, D
